Would you mind telling me the reported HEK293 LD50 of each entry?
- Test system: HEK293 (kidney) cell line
- test details: In vitro cytotoxicity, cell viability
- Format: cell-based
- details: 48 h incubation, Cell-Titer Glo cell viability
Show the value, then the unit it is measured in.

## Task Request the reported HEK293 LD50 associated with C#Cc1ccc2c(c1)C(c1ccccc1F)=N[C@@H](C)c1c(-c3nc(C)no3)ncn1-2
## Result 69.3 ± 2.3 µM

## Task Request the reported HEK293 LD50 associated with C#Cc1ccc2c(c1)C(c1ccccc1F)=N[C@@H](C)c1c(C(=O)NC(C)C)ncn1-2
## Result 80.2 ± 11.1 µM

## Task Request the reported HEK293 LD50 associated with C#Cc1ccc2c(c1)C(c1ccccc1F)=N[C@@H](C)c1c(C(=O)OC(C)C)ncn1-2
## Result 48.9 ± 4.4 µM

## Task Request the reported HEK293 LD50 associated with C#Cc1ccc2c(c1)C(c1ccccc1F)=N[C@@H](C)c1c(C(=O)OCCC)ncn1-2
## Result 53.2 ± 4.4 µM

## Task Request the reported HEK293 LD50 associated with C#Cc1ccc2c(c1)C(c1ccccc1F)=N[C@@H](C)c1c(C(=O)NC(C)(C)C)ncn1-2
## Result 33.6 ± 3.0 µM

## Task Request the reported HEK293 LD50 associated with C#Cc1ccc2c(c1)C(c1ccccc1F)=N[C@@H](C)c1c(C#N)ncn1-2
## Result 81.6 ± 6.7 µM

## Task Request the reported HEK293 LD50 associated with C#Cc1ccc2c(c1)C(c1ccccc1F)=N[C@@H](C)c1c(-c3nc(CC)no3)ncn1-2
## Result 46.9 ± 6.6 µM

## Task Request the reported HEK293 LD50 associated with C#Cc1ccc2c(c1)C(c1ccccc1F)=N[C@@H](C)c1c(C(=O)NCC)ncn1-2
## Result 95.5 ± 12.6 µM

====

- test details: In vitro microsomal stability of analogs
- Type: in vitro ADME, human
- details: human, liver microsomes, Microsomal stability (HLM) % remaining, after 2 hr
Define the label as Criterion met when remaining at 2 h is strictly less than 80% and as Criterion not met in all remaining cases.

## Task Problem: For the compound C#Cc1ccc2c(c1)C(c1ccccc1F)=N[C@@H](C)c1c(-c3nc(C(C)C)no3)ncn1-2 [9c] , is remaining at 2 h under 80%?
## Result Criterion not met

## Task Problem: For the compound C#Cc1ccc2c(c1)C(c1ccccc1F)=N[C@@H](C)c1c(C(=O)NC)ncn1-2 [8a] , is remaining at 2 h under 80%?
## Result Criterion not met

## Task Problem: For the compound C#Cc1ccc2c(c1)C(c1ccccc1F)=N[C@@H](C)c1c(C(=O)O)ncn1-2 [compound 6] , is remaining at 2 h under 80%?
## Result Criterion met

## Task Problem: For the compound C#Cc1ccc2c(c1)C(c1ccccc1F)=N[C@@H](C)c1c(C(=O)NCC)ncn1-2 [8b] , is remaining at 2 h under 80%?
## Result Criterion not met

## Task Problem: For the compound C#Cc1ccc2c(c1)C(c1ccccc1F)=N[C@@H](C)c1c(-c3nc(C)no3)ncn1-2 [9a] , is remaining at 2 h under 80%?
## Result Criterion not met

## Task Problem: For the compound C#Cc1ccc2c(c1)C(c1ccccc1F)=N[C@@H](C)c1c(C#N)ncn1-2 [compound 10] , is remaining at 2 h under 80%?
## Result Criterion met

====

- test details: In vitro microsomal stability of analogs
- Assay type: in vitro ADME, mouse
- details: mouse, liver microsomes, Microsomal stability (MLM) % remaining, footnote d: assessed at 1-hour incubation time
Define the label as Criterion met when remaining at 1 h is strictly less than 50% and as Criterion not met in all remaining cases.

## Task Problem: For the compound C#Cc1ccc2c(c1)C(c1ccccc1F)=N[C@@H](C)c1c(C(=O)OC(C)(C)C)ncn1-2 , is remaining at 1 h under 50%?
## Result Criterion not met

## Task Problem: For the compound C#Cc1ccc2c(c1)C(c1ccccc1F)=N[C@@H](C)c1c(C(=O)O)ncn1-2 , is remaining at 1 h under 50%?
## Result Criterion not met

## Task Problem: For the compound C#Cc1ccc2c(c1)C(c1ccccc1F)=N[C@@H](C)c1c(C(=O)OC(C)C)ncn1-2 , is remaining at 1 h under 50%?
## Result Criterion not met

## Task Problem: For the compound C#Cc1ccc2c(c1)C(c1ccccc1F)=N[C@@H](C)c1c(C(=O)OCCC)ncn1-2 , is remaining at 1 h under 50%?
## Result Criterion met

## Task Problem: For the compound C#Cc1ccc2c(c1)C(c1ccccc1F)=N[C@@H](C)c1c(C(=O)N(C)C)ncn1-2 , is remaining at 1 h under 50%?
## Result Criterion met

====

- test details: In vitro microsomal stability of analogs
- Assay type: in vitro ADME, mouse
- details: mouse, liver microsomes, Microsomal stability (MLM) % remaining, after 2 hr
metric: remaining at 2 h (%)
Value expressed in %; do not type the unit.

## Task Request the reported remaining at 2 h associated with C#Cc1ccc2c(c1)C(c1ccccc1F)=N[C@@H](C)c1c(-c3nc(CC)no3)ncn1-2
## Result 63

## Task Request the reported remaining at 2 h associated with C#Cc1ccc2c(c1)C(c1ccccc1F)=N[C@@H](C)c1c(C#N)ncn1-2
## Result 16

## Task Request the reported remaining at 2 h associated with C#Cc1ccc2c(c1)C(c1ccccc1F)=N[C@@H](C)c1c(C(=O)NC)ncn1-2
## Result 86

## Task Request the reported remaining at 2 h associated with C#Cc1ccc2c(c1)C(c1ccccc1F)=N[C@@H](C)c1c(-c3nc(C)no3)ncn1-2
## Result 81

## Task Request the reported remaining at 2 h associated with COC(=O)c1ncn2c1[C@H](C)N=C(c1ccccc1F)c1cc(Br)ccc1-2
## Result 41

## Task Request the reported remaining at 2 h associated with C#Cc1ccc2c(c1)C(c1ccccc1F)=N[C@@H](C)c1c(C(=O)OC)ncn1-2
## Result 62

## Task Request the reported remaining at 2 h associated with CCOC(=O)c1ncn2c1[C@H](C)N=C(c1ccccc1F)c1cc(C3CC3)ccc1-2
## Result 16

## Task Request the reported remaining at 2 h associated with C#Cc1ccc2c(c1)C(c1ccccc1F)=N[C@@H](C)c1c(-c3nc(C(C)C)no3)ncn1-2
## Result 79

====

- test details: In vitro microsomal stability of analogs
- Type: in vitro ADME, human
- details: human, liver microsomes
metric: half-life

## Task Request the reported half-life associated with CCOC(=O)c1ncn2c1[C@H](C)N=C(c1ccccc1F)c1cc(C3CC3)ccc1-2
## Result < 5 min

## Task Request the reported half-life associated with C#Cc1ccc2c(c1)C(c1ccccc1F)=N[C@@H](C)c1c(C(=O)OCC(F)(F)F)ncn1-2
## Result < 5 min

## Task Request the reported half-life associated with C#Cc1ccc2c(c1)C(c1ccccc1F)=N[C@@H](C)c1c(C(=O)OCCC)ncn1-2
## Result < 5 min
